# experimentalTarget: soluble FGFR2c receptor protein (human, UniProt P21802 148-377)
# Sequence (P21802 148-377): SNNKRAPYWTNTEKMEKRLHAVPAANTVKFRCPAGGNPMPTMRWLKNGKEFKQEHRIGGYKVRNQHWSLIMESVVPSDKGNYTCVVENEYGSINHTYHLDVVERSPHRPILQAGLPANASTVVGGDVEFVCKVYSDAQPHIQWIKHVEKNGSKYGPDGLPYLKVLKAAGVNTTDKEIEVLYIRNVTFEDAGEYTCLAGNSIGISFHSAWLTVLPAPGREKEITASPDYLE
# procedureDetails: BLI Octet RED96, antibody on anti-hIgG Fc tip
List of kon values.
quantityKind: kon (M⁻¹ s⁻¹)

binder="Ab92 (antibody, human IgG2, kappa, V domains shown, format in the assays not spelled out) VH: EVQLLESGGGVVQPGRSLRLSCAASGFTFSSYAMHWVRQAPGKGLEWVAVISYDGSNKYYADSVKGRFTISRDNSKNTLSLQMNSLRVEDTAIYYCVRGAGHGFPTGPDGFDIWGQGTMVTVSS VL: DIVMTQTPLSLSVTPGQPASISCRSSRSLLHSDGKTYVYWYVQKSGQPPQLLIYELSNRFSGVPDRFSGSGSRTDFTLKISRVEAEDVGVYYCMQYVEAPLTFGGGTKVEIKR" quantitykind=kon resultunits="M⁻¹ s⁻¹" observedvalue=147000
binder="Vk11 combined with the VH of Ab15 (antibody, V domains shown, captured on anti-human IgG Fc tips) VH: EVQLLESGGGVVQPGRSLRLSCAASGFTFSSYAMHWVRQAPGKGLEWVAVISYDGSNKYYADSVKGRFTISRDNSKNTLSLQMNSLRVEDTAIYYCVRGAGRGYTYGPDGFDIWGQGTMVTVSS VL: DIVMTQSPLSLPVTPGEPASISCTSSRSLLHSDGKTYVYWYLQKPGQSPQVLIYELSNRFSGVPDRFSGSGSGTDFTLKISRVEAEDVGVYYCMQYIEAPLTFGGGTKVEIK" quantitykind=kon resultunits="M⁻¹ s⁻¹" observedvalue=212000
binder="Vk10 combined with the VH of Ab15 (antibody, V domains shown, captured on anti-human IgG Fc tips) VH: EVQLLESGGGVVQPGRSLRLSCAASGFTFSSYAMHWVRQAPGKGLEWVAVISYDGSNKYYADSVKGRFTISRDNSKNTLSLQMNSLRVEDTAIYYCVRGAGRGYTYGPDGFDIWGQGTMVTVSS VL: DIVMTQSPDSLAVSLGERATISCTSSRSLLHSDGKTYVYWYQQKPGQPPKLLIYELSNRFSGVPDRFSGSGSRTDFTLTISSLQAEDVAVYYCMQYIEAPLTFGGGTKVEIK" quantitykind=kon resultunits="M⁻¹ s⁻¹" observedvalue=220000
